B1: SFRS1 (parent)
chain: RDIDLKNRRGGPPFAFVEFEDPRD

- Variants of: B1
- test.description: protein stability index of a GFP-peptide fusion (GPS, HEK-293T) (PSI 1-6); higher = more stable;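 also: lentivirally expressed fusions sorted by FACS into six bins by GFP to DsRed ratio, PSI derived from sequencing read proportions per bin multiplied by bin number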
- condition: c terminus: a fixed tail appended
recorded.metric: protein stability index
Numbers only.

N7G    4.16

Give measured protein stability index for every item shown.
1. F14L
2. R1T
3. F19P
4. D2N
5. G10M
6. R1K
7. G11S
8. N7K

Output line:
3.92
3.94
3.85
3.41
3.51
3.57
4.17
3.41

Give measured protein stability index for every item shown.
1. R9W
2. D21M
3. E20N
4. F16S
5. E20G
6. D2I
7. F14K
8. D2C

Output line:
[4.23, 2.8, 3.68, 4.7, 3.14, 2.68, 4.51, 3.1]

Give measured protein stability index for every item shown.
1. E20T
2. G10K
3. R8N
4. R9A
5. F19K
6. F19L
7. D4A
8. I3Y

Output line:
[3.3, 3.42, 4.27, 4.57, 3.18, 4.22, 3.11, 3.56]

Give measured protein stability index for every item shown.
1. V17N
2. F14P
3. K6N
4. E18K

Output line:
[4.62, 5.05, 4.04, 2.64]

Data origin: the supplement of paper PMC10567573
